# Tested on: LXRa homodimer (NR concentration 270 nM)
# assay-remarks: PBM binding z-score (relative to random genomic background probes); higher = stronger binding; sequences stand for … in GC…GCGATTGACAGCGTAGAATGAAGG
The following sequences are shown together with reported PBM binding z-score values.

For orientation, consider the following solved cases.
{"sequence-content": "GGATCGAGGGCAAAGTTGATAGCATCTGTCGACG", "PBM binding z-score": -0.00761}
{"sequence-content": "ACAATGAGGTTATACGTAGATCAGGGAAGAAAGT", "PBM binding z-score": -0.0615}
{"sequence-content": "TCTTGTAGATCAATAGCGGTTAAGAAAGTGCGCT", "PBM binding z-score": 0.174}
{"sequence-content": "CCGACTGGGGCAGAAAGGTTACCATTCCATCCGG", "PBM binding z-score": -0.165}
{"sequence-content": "GGAACGAGGGCAAGTTGCTAGCAGAGTTTGATGG", "PBM binding z-score": -0.44}

// query Using the record for `TGAATGAGGTTAAAGATCAGAGAACGTGGCGTCG` , report its PBM binding z-score.
// result -0.274

// query Using the record for `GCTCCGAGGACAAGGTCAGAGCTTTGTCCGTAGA` , report its PBM binding z-score.
// result -0.653

The measurements presented in this section are drawn from the supplement of paper PMC6555819.
